System: RSV A2 strain
Protocol summary: RSV microneutralization assay, RSV A2 strain
Type: cell-based
Condition notes: human respiratory syncytial virus; MOI 0.002, HEp-2 cells, day 6
Please provide measured EC50 for the entries that follow.
Give just the number in nM; leave the unit off.

stdin: Entry C#CCOCCOCCOCCOCCn1c(CN2C(=O)C3(CCN(C(=O)OC(C)(C)C)CC3)c3ccncc32)nc2cc(Cl)ccc21 [Int-41] : reported EC50 = ?
stdout: 15

stdin: I have this compound here, Cc1cn2nc([C@@H]3CCCCN3C(=O)c3cc(Cl)ccc3NS(C)(=O)=O)cc2nc1N1CC[C@H](N)C1 [Presatovir, reference compound] , and I need its recorded EC50.
stdout: 0.014

stdin: What value of measured EC50 is listed for C#CCOCCOCCOCCOCCC(=O)NCCCCn1c(CN2C(=O)C3(CCN(C(=O)OC(C)(C)C)CC3)c3ccncc32)nc2cc(Cl)ccc21 [Int-35] ?
stdout: 0.74

stdin: Need EC50, item C#CCOCCOCCOCCOCCOCCCCn1c(CN2C(=O)C3(CCN(C(=O)OC(C)(C)C)CC3)c3ccncc32)nc2cc(Cl)ccc21 [Int-42]
stdout: 0.88
